# experimentalTarget: Gal-1 (Homo sapiens, UniProt P09382)
# Construct: made in house; host or cells: E. coli BL21(DE3)
# Sequence (P09382 whole entry): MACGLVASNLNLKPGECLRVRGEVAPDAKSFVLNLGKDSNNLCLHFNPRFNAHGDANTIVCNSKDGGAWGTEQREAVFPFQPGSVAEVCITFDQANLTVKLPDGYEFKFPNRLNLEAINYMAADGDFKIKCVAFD
# assayInfo: Pull-down assay with immobilized protein and LSM libraries
# Format: binding
# conditionParameters: H12 library; 1:1 binding assumed; read-out: Surface mapping KD (apparent)
Consider the following compounds; for each one, report its pKd.
Answers are plain numbers, as −log10 of the molar value.

Record excerpt, results attached:
chemSmiles: CC(C)C[C@@H](CC(=O)N[C@H]1CCC[C@@H]1C(=O)N[C@H]1CCC[C@@H]1C(=O)N[C@H](CC(=O)N[C@H]1CCC[C@@H]1C(=O)N[C@H]1CCC[C@@H]1C(N)=O)Cc1c[nH]c2ccccc12)NC(=O)[C@H]1CCC[C@@H]1NC(=O)[C@H]1CCC[C@@H]1N
experimentalTarget: Gal-1 (Homo sapiens, UniProt P09382)
observationType: pKd
testResult: 3.43
--
chemSmiles: CC(C)[C@@H](CC(=O)N[C@H]1CCC[C@@H]1C(=O)N[C@H]1CCC[C@@H]1C(N)=O)NC(=O)[C@H]1CCC[C@@H]1NC(=O)[C@H]1CCC[C@@H]1NC(=O)C[C@H](CCCCN)NC(=O)[C@H]1CCC[C@@H]1NC(=O)[C@H]1CCC[C@@H]1N
experimentalTarget: Gal-1 (Homo sapiens, UniProt P09382)
observationType: pKd
testResult: 3.66
--
chemSmiles: C[C@@H](CC(=O)N[C@H]1CCC[C@@H]1C(=O)N[C@H]1CCC[C@@H]1C(=O)N[C@@H](CCC(N)=O)CC(=O)N[C@H]1CCC[C@@H]1C(=O)N[C@H]1CCC[C@@H]1C(N)=O)NC(=O)[C@H]1CCC[C@@H]1NC(=O)[C@H]1CCC[C@@H]1N
experimentalTarget: Gal-1 (Homo sapiens, UniProt P09382)
observationType: pKd
testResult: 3.34
--
chemSmiles: NC(=O)[C@H]1CCC[C@@H]1NC(=O)[C@H]1CCC[C@@H]1NC(=O)C[C@H](CCC(=O)O)NC(=O)[C@H]1CCC[C@@H]1NC(=O)[C@H]1CCC[C@@H]1NC(=O)C[C@H](CC(=O)O)NC(=O)[C@H]1CCC[C@@H]1NC(=O)[C@H]1CCC[C@@H]1N
experimentalTarget: Gal-1 (Homo sapiens, UniProt P09382)
observationType: pKd
testResult: 3.62
--
chemSmiles: NC(=O)[C@H]1CCC[C@@H]1NC(=O)[C@H]1CCC[C@@H]1NC(=O)C[C@H](CCC(=O)O)NC(=O)[C@H]1CCC[C@@H]1NC(=O)[C@H]1CCC[C@@H]1NC(=O)C[C@H](Cc1ccccc1)NC(=O)[C@H]1CCC[C@@H]1NC(=O)[C@H]1CCC[C@@H]1N
experimentalTarget: Gal-1 (Homo sapiens, UniProt P09382)
observationType: pKd
testResult: 3.70
--
chemSmiles: CSCC[C@@H](CC(=O)N[C@H]1CCC[C@@H]1C(=O)N[C@H]1CCC[C@@H]1C(N)=O)NC(=O)[C@H]1CCC[C@@H]1NC(=O)[C@H]1CCC[C@@H]1NC(=O)C[C@H](CC(C)C)NC(=O)[C@H]1CCC[C@@H]1NC(=O)[C@H]1CCC[C@@H]1N
experimentalTarget: Gal-1 (Homo sapiens, UniProt P09382)
observationType: pKd
testResult: 3.42
--
chemSmiles: NC(=O)[C@H]1CCC[C@@H]1NC(=O)[C@H]1CCC[C@@H]1NC(=O)C[C@H](Cc1c[nH]c2ccccc12)NC(=O)[C@H]1CCC[C@@H]1NC(=O)[C@H]1CCC[C@@H]1NC(=O)C[C@H](CO)NC(=O)[C@H]1CCC[C@@H]1NC(=O)[C@H]1CCC[C@@H]1N
experimentalTarget: Gal-1 (Homo sapiens, UniProt P09382)
observationType: pKd
testResult: 3.34

INPUT: Entry `CC[C@H](C)[C@@H](CC(=O)N[C@H]1CCC[C@@H]1C(=O)N[C@H]1CCC[C@@H]1C(N)=O)NC(=O)[C@H]1CCC[C@@H]1NC(=O)[C@H]1CCC[C@@H]1NC(=O)C[C@H](Cc1ccccc1)NC(=O)[C@H]1CCC[C@@H]1NC(=O)[C@H]1CCC[C@@H]1N` has what pKd?
OUTPUT: 3.78

Data credit: paper PMC8162404
